The following molecules are shown together with reported ERYTHROCYTE COUNT values.
# Species: Rattus norvegicus
# ASSAY_REMARKS: DrugMatrix - Regimen: Daily Repeat
# Format: toxicity, organism-based, Sprague-Dawley
# Parameters: regimen Daily Repeat, gender Male, age 6-8 weeks
# CONDITION_NOTES: in vivo, iv, 0 mg/kg, 120 h, tissue Blood, dose level Control, time 5 day, vehicle 100 % SALINE
Only the number, expressed in x10E6/uL, is required.

Here is how some molecules turned out for ERYTHROCYTE COUNT.
CC(=O)N[C@@H]1[C@H](Oc2c3cc4cc2Oc2ccc(cc2Cl)[C@@H](O[C@@H]2O[C@@H](CO)[C@@H](O)[C@H](O)[C@@H]2NC(C)=O)[C@@H]2NC(=O)[C@H](NC(=O)[C@@H]4NC(=O)[C@H]4NC(=O)[C@@H](Cc5ccc(c(Cl)c5)O3)NC(=O)[C@H](N)c3ccc(O)c(c3)Oc3cc(O)cc4c3)c3ccc(O)c(c3)-c3c(O[C@H]4O[C@H](CO)[C@@H](O)[C@@H](O)[C@@H]4O)cc(O)cc3[C@@H](C(=O)O)NC2=O)O[C@@H](CO)[C@@H](O)[C@@H]1O	5.99
CCC1=C[C@@H]2CN(C1)Cc1c([nH]c3ccccc13)[C@@](C(=O)OC)(c1cc3c(cc1OC)N(C)[C@H]1[C@@](O)(C(=O)OC)[C@H](OC(C)=O)[C@]4(CC)C=CCN5CC[C@]31[C@@H]54)C2	5.89
CCc1c2c(nc3ccc(OC(=O)N4CCC(N5CCCCC5)CC4)cc13)-c1cc3c(c(=O)n1C2)COC(=O)[C@]3(O)CC	5.88
CC[C@]1(O)C[C@@H]2CN(CCc3c([nH]c4ccccc34)[C@@](C(=O)OC)(c3cc4c(cc3OC)N(C)[C@H]3[C@@](O)(C(=O)OC)[C@H](OC(C)=O)[C@]5(CC)C=CCN6CC[C@]43[C@@H]65)C2)C1	5.93
COc1cccc2c1C(=O)c1c(O)c3c(c(O)c1C2=O)C[C@@](O)(C(=O)CO)C[C@@H]3O[C@H]1C[C@H](N)[C@@H](O)[C@H](C)O1 [EPIRUBICIN]	5.88

Attention now shifts to the item below.
ERYTHROCYTE COUNT measured on COc1cccc2c1C(=O)c1c(O)c3c(c(O)c1C2=O)C[C@@](O)(C(=O)CO)C[C@@H]3O[C@H]1C[C@H](N)[C@H](O)[C@H](C)O1 = 5.55

----------
# Species: Rattus norvegicus
# ASSAY_REMARKS: DrugMatrix - Regimen: Daily Repeat
# Type: toxicity, organism-based, Sprague-Dawley
# Design: regimen Daily Repeat, gender Male, age 6-8 weeks
# CONDITION_NOTES: in vivo, po, 0 mg/kg, 72 h, tissue Plasma, route oral GAVAGE, dose level Control, time 3 day, […]
EXPERIMENTAL_ENDPOINT: BLOOD UREA NITROGEN
State the result as a value with its unit after it.

Here is how some molecules turned out for BLOOD UREA NITROGEN.
COCCOC(=O)C1=C(C)NC(C)=C(C(=O)OC(C)C)C1c1cccc([N+](=O)[O-])c1 (stereo unspecified)	12.17 mg/dL
CC(=O)Nc1ccc(O)cc1	13 mg/dL
Cc1cccc(Nc2ccncc2S(=O)(=O)NC(=O)NC(C)C)c1 [TORSEMIDE]	12 mg/dL
CC(=O)Nc1cccc(O)c1	15.83 mg/dL
COc1ccc2[nH]c([S+]([O-])Cc3ncc(C)c(OC)c3C)nc2c1 (stereo unspecified)	12.33 mg/dL
CCOC(=O)C1=C(C)NC(C)=C(C(=O)OC)C1c1cccc([N+](=O)[O-])c1 (stereo unspecified)	12.17 mg/dL

Attention now shifts to the item below.
BLOOD UREA NITROGEN measured on O=C(O)Cc1ccccc1Nc1c(Cl)cccc1Cl = 14.33 mg/dL

----------
# Organism: Rattus norvegicus
# ASSAY_REMARKS: DrugMatrix - Regimen: Daily Repeat
# Type: toxicity, organism-based, Sprague-Dawley
# Set-up: regimen Daily Repeat, gender Male, age 6-8 weeks
# CONDITION_NOTES: in vivo, po, 0 mg/kg, 120 h, tissue Blood, route oral GAVAGE, dose level Control, time 5 day, vehicle 100 % WATER
Rule: NEUTROPHIL of 8% or more gives label 1; anything lower gives label 0.

# count of solved cases: 3
Nc1ccn([C@@H]2CS[C@H](CO)O2)c(=O)n1	label 0
C[C@@H]1C[C@@H]([C@H](O)CC2CC(=O)NC(=O)C2)C(=O)[C@@H](C)C1 [CYCLOHEXIMIDE]	label 0
COC(=O)C1=C(C)NC(C)=C(C(=O)OCC(C)C)C1c1ccccc1[N+](=O)[O-] (centres undefined)	label 0

Does CC(C)NCC(O)COc1cccc2ccccc12 (centres undefined) have a reported NEUTROPHIL of at least 8%?
label 1

Does CC(C)(C)c1ccc(C(=O)CCCN2CCC(OC(c3ccccc3)c3ccccc3)CC2)cc1 have a reported NEUTROPHIL of at least 8%?
label 1

Does CC(C)C[C@H](NC(=O)[C@@H](O)[C@H](N)Cc1ccccc1)C(=O)O have a reported NEUTROPHIL of at least 8%?
label 1

----------
The following compounds are shown together with reported BASOPHIL values.
# Species on record: Rattus norvegicus
# ASSAY_REMARKS: DrugMatrix - Regimen: Daily Repeat
# Assay type: toxicity, organism-based, Sprague-Dawley
# Design: regimen Daily Repeat, gender Male, age 6-8 weeks
# CONDITION_NOTES: in vivo, po, 0 mg/kg, 120 h, tissue Blood, route oral GAVAGE, dose level Control, time 5 day, vehicle .5 % CMC
Only the number, expressed in %, is required.

Here is how some compounds turned out for BASOPHIL.
Cc1onc(-c2ccccc2)c1-c1ccc(S(N)(=O)=O)cc1	1.47
OC(CCN1CCCCC1)(c1ccccc1)C1CCCCC1 (stereo not given)	0
CC[C@@H](CO)NCCN[C@@H](CC)CO	0

BASOPHIL measured on O=C1CCC(N2C(=O)c3ccccc3C2=O)C(=O)N1 (stereo not given) [THALIDOMIDE] = 1.35

BASOPHIL measured on CN1C(=O)COc2c(C(=O)NC3CN4CCC3CC4)cc(Cl)cc21 (stereo not given) = 0

BASOPHIL measured on CN1CCC(=C2c3ccccc3C=Cc3ccccc32)CC1 = 0

BASOPHIL measured on CC(C)[C@H]1CC[C@H](C(=O)N[C@H](Cc2ccccc2)C(=O)O)CC1 [NATEGLINIDE] = 0

BASOPHIL measured on O=[N+]([O-])c1ccccc1 = 0.48

BASOPHIL measured on CC(=O)CC(c1ccccc1)c1c(O)c2ccccc2oc1=O (stereo not given) = 0

BASOPHIL measured on C[C@]1(Cn2ccnn2)[C@H](C(=O)O)N2C(=O)C[C@H]2S1(=O)=O = 0

----------
The following molecules are shown together with reported POTASSIUM values.
# Species: Rattus norvegicus
# ASSAY_REMARKS: DrugMatrix - Regimen: Daily Repeat
# Format: toxicity, organism-based, Sprague-Dawley
# Set-up: regimen Daily Repeat, gender Male, age 6-8 weeks
# CONDITION_NOTES: in vivo, po, 0 mg/kg, 72 h, tissue Plasma, route oral GAVAGE, dose level Control, time 3 day, vehicle .5 % CMC
State the result as a value with its unit after it.

Here is how some molecules turned out for POTASSIUM.
CC[C@@H](CO)NCCN[C@@H](CC)CO [ETHAMBUTOL]	6.78 MEQ/L
N=C(N)NC(=O)c1nc(Cl)c(N)nc1N [AMILORIDE]	6.78 MEQ/L
C[C@]1(Cn2ccnn2)[C@H](C(=O)O)N2C(=O)C[C@H]2S1(=O)=O [TAZOBACTAM]	6.33 MEQ/L

POTASSIUM measured on CN1C(=O)COc2c(C(=O)NC3CN4CCC3CC4)cc(Cl)cc21 (configuration not stated) [AZASETRON] = 6.43 MEQ/L

POTASSIUM measured on OC(CCN1CCCCC1)(c1ccccc1)C1CCCCC1 (configuration not stated) [TRIHEXYPHENIDYL] = 6.91 MEQ/L

POTASSIUM measured on CNC(=C[N+](=O)[O-])NCCSCc1ccc(CN(C)C)o1 [RANITIDINE] = 7.13 MEQ/L

POTASSIUM measured on CO[C@H]1/C=C/O[C@@]2(C)Oc3c(C)c(O)c4c(c3C2=O)C2=NC3(CCN(CC(C)C)CC3)NC2=C(NC(=O)/C(C)=C\C=C\[C@H](C)[C@H](O)[C@@H](C)[C@@H](O)[C@@H](C)[C@H](OC(C)=O)[C@@H]1C)C4=O [RIFABUTIN] = 7.13 MEQ/L

----------
# Organism: Rattus norvegicus
# ASSAY_REMARKS: DrugMatrix - Regimen: Daily Repeat
# Assay type: toxicity, organism-based, Sprague-Dawley
# Parameters: regimen Daily Repeat, gender Male, age 6-8 weeks
# CONDITION_NOTES: in vivo, po, 0 mg/kg, 120 h, tissue Blood, route oral GAVAGE, dose level Control, time 5 day, […]
Rule: NEUTROPHIL of 10% or more gives condition met; anything lower gives condition not met.

# count of solved cases: 3
O=NN(CCCl)C(=O)NCCCl [CARMUSTINE]	condition not met
COc1ccc2[nH]c([S+]([O-])Cc3ncc(C)c(OC)c3C)nc2c1 (stereo not given) [OMEPRAZOLE]	condition not met
CC(C)Cc1ccc(C(C)C(=O)O)cc1 (stereo not given) [IBUPROFEN]	condition not met

Continue with the next compound.
Does COCCOC(=O)C1=C(C)NC(C)=C(C(=O)OC(C)C)C1c1cccc([N+](=O)[O-])c1 (stereo not given) [NIMODIPINE] have a reported NEUTROPHIL of at least 10%?
condition met

Reference for the values: ChEMBL document CHEMBL3885881
